B1: CPEB3 Ribozyme (parent)
chain: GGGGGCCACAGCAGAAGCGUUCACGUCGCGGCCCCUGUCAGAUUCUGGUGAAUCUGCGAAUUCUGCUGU

# Variants of: B1
# protocol_text: self-cleavage, relative activity (ratio to wild type); higher = more cleavage; co-transcriptional
metric: self-cleavage

> print(dat)
    mutant.label  result.number
 1      A8G U38A          0.662
 2      C9G G17A           0.66
 3     G41C G56C          0.417
 4     C33G G58A          0.545
 5      A8G U38G         0.0785
 6     C27U U67G            0.4
 7     C32A C57A          0.245
 8      A8G U21G          0.199
 9     C22U U43C          0.295
10     A10C G50C          0.996
11     A13U G48A          0.911
12     U43A A52G              1
13     A15U U36C          0.557
14     U55G C63U          0.626
15      G4C G50U          0.637
16     C18G C39G          0.101
17     C34U G58U              1
18     U20G C22U          0.141
19     U26A U49C           0.79
20     A13U G17C          0.116
21     C29A U69A           0.91
22     U53C C63U          0.786
23     G25U G56U          0.134
24     C34G G58A          0.463
25     C34A G50C          0.773
26     C39U G50A           0.91
27     C33A C45G          0.665
28     A52G U67G           1.02
29     G11U A60G          0.497
30     A10G A23C          0.939
31          U38A          0.929
32      G4U G31A         0.0947
33     C12G G19C         0.0934
34     C35A U67A          0.239
35     G25U U61C          0.179
36     G37A U67C          0.321
37     G30U G50C          0.294
38     A23G C57A          0.394
39     G14U U44A          0.553
40      C7U C24U          0.676
41     C12A C45U           0.72
42     U43C C45G          0.964
43     C27U U55G          0.188
44     A16C U53A           0.16
45     C12G G28U           0.11
46     U61C G65A           0.36
47     G17A C29G          0.749
48     G28C G65U           0.16
49      A8G C34U          0.952
50     U21G U64C          0.254
51     C29G U44G          0.361
52     G25A C63G          0.185
53      C9G U36A          0.256
54      G4U C33G              1
55     A10C A52U          0.985
56     A10C G31C          0.233
57     C33U U62C          0.847
58      C7U C29U          0.505
59     U43G U46A          0.959
60     G48C C66U          0.998
61     G11U C35A           0.16
62     G47A G65A          0.936
63      C7U C35G           0.28
64     C35U G68A          0.992
65       G1C A8G          0.205
66     C22A A60U          0.222
67      G2A A52C          0.167
68     A15U C39U          0.583
69      C7U G37A          0.187
70     G17A U43G          0.177
71     A15G C29U          0.358
72     U38C U67G          0.925
73     G19U U21A           0.31
74     C45U G47C          0.998
75     G30A G47A          0.916
76     G41C U69A          0.932
77     A23G C35U          0.935
78     U20C A23G          0.238
79     U46A G56U          0.941
80     U21C U55A          0.843
81      G2U U61A         0.0837
82      G5A U46G          0.925
83     U38C U43G          0.866
84     C18U U62G          0.494
85      C7A A23C          0.407
86     A16G G37A           0.13
87     A23C G58U          0.929
88     A42G G50A           0.88
89      C6U C33G          0.145
90     C24G U67C          0.522
91      C9U G11U          0.945

Origin of measurements: the RNAGym collection of RNA variant scans (doi:10.7554/elife.80360)
